Catalogue of koff values
Target: human full-length VWF (human, UniProt P04275 764-2813)
Assay: SPR, Biacore T200, antibody captured on Protein A, full-length VWF as analyte, single-cycle kinetics
Dear colleague, please return just the value in s⁻¹, with no unit written.

INSERT INTO assay_data (binder, measured_endpoint, unit_tag, measured) VALUES
  ('4-H3_VH-par_L1 (antibody, human IgG1, kappa, V domains shown, also called 4-H3_L1 (hIgG1K)) VH: SQSLEESGGRLVPPGTPLTLTCTVSGIDLTSNAMNWVRQAPGKGLEWIGGIYGHDTSYYAAWAKGRFTISRTSTTVDLKMTRPTTDDTATYFCARGFIYFDIWGTGTLVTISS VL: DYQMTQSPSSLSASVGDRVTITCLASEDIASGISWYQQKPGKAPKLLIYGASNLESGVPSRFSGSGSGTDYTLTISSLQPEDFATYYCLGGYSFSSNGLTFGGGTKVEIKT', 'koff', 's⁻¹', '1.75e-08');

Attention now shifts to the item below.
Field request: koff | item: 4-H3_H7_L0 rep (antibody, human IgG1, kappa, V domains shown, humanised, human IgG1 kappa) VH: QVQLVESGGGVVQPGRSLRLSCAASGIDLTSNAMNWVRQAPGKGLEWIGGIYGHDTSYYAAWAKGRFTISRDNSKNTVYLQMNSLRAEDTATYFCARGFIYFDIWGQGTLVTVSS VL: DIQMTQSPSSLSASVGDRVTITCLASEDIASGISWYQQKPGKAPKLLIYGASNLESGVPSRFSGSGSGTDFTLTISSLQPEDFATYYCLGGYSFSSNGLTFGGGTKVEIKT
1.73e-07
